Test: protein stability index of a GFP-peptide fusion (yeast GPS) (PSI 1-4); higher = more stable; sorted into four equal gates, so the index is relative within each strain
Conditions: pdr5∆
test readout: protein stability index

GRLASTIAKQVLNGQKI [RPL16B]
2.69
TPDANLISKPAKKNNFI [UBP6]
3.05
VRLLCRSDGMGNVLLNA [YLR335W/NUP2]
2.41
VGLSQPDAKIQVRRDIP [YMR129W/POM152]
2.76
VLCTRLRLSNFFTIDHF [SIR2]
1.5

Prompt line: State its protein stability index for this sequence: ELTKSLSIAFENGDYAA [RPN12]
Response line: 3

Prompt line: State its protein stability index for this sequence: SGQFYFRNPTPLLSNYA [RGR1]
Response line: 1.54

###

Test: protein stability index of a GFP-peptide fusion (yeast GPS) (PSI 1-4); higher = more stable; sorted into four equal gates, so the index is relative within each strain
Settings: ubr1∆
test readout: protein stability index
Number only, please.

Consider the following illustrative entries.
SMINNSNQAVGQTWNFP [SRB8]
2.74
LVREIAQDFKTDLRFQS [HHT1]
2.88
LISIISSVIQNYDIITA [YML103C/NUP188]
1.3
EPTVRIQAVFCLTKFQD [YCG1]
2.78
QLEKKIRFVCLSNCLAN [BRR2]
1.63
RHFGMGPHKGKAPRILS [RPL18A]
2.73

Prompt line: State its protein stability index for this sequence: YMDSMNEKVAVMRNTYN [GAL11]
Response line: 2.34

Prompt line: State its protein stability index for this sequence: QIQKNVDLLQFPWLNAI [POP3]
Response line: 2.35

Prompt line: State its protein stability index for this sequence: TQTGQNTGPSTGGLFGA [YGL172W/NUP49]
Response line: 3.52

###

Test: protein stability index of a GFP-peptide fusion (yeast GPS) (PSI 1-4); higher = more stable; sorted into four equal gates, so the index is relative within each strain
Settings: doa10∆
test readout: protein stability index

Prompt line: State its protein stability index for this sequence: GLFGNKPALGSLGSSST [YGR119C/NUP57]
Response line: 3.34

Prompt line: State its protein stability index for this sequence: KDYHTLANNVESKLRDD [RPS18A]
Response line: 3.29

Prompt line: State its protein stability index for this sequence: EPTVRIQAVFCLTKFQD [YCG1]
Response line: 2.27

Prompt line: State its protein stability index for this sequence: TAEERVGRRAANLRVLN [RPL15A]
Response line: 2.83

Prompt line: State its protein stability index for this sequence: TPSFSFGKTTANLPANS [YLR335W/NUP2]
Response line: 2.84

Prompt line: State its protein stability index for this sequence: EEIEPKLEKLRNEKRMF [SMC2]
Response line: 2.89

###

Test: protein stability index of a GFP-peptide fusion (yeast GPS) (PSI 1-4); higher = more stable; sorted into four equal gates, so the index is relative within each strain
Settings: doa10∆
test readout: protein stability index

Consider the following illustrative entries.
KLAAIVEIIDQKKVLID [RPL14A]
2.8
VYDFYGRHVATCSSDQH [YGL100W/SEH1]
2.75
SKSNLIHNYDSKKSTIT [RGR1]
3.03
YNVCDTSKSLVKRYRLA [SIN4]
2.39
LQALKANDEEAYIKLLD [SNF2]
2.91
YKPLIEERMGQIENLNE [SMC4]
3.2
PLDSKDENFASVSPAGP [SNF2]
3.05
TLTELKDALSNSILSVR [SRB2]
3.29
MLSAHNIIESIANFSRA [YJR042W/NUP85]
2.31
KVLEMKNLKDTASVEKA [YIL149C/MLP2]
2.95

Prompt line: State its protein stability index for this sequence: YSAAKKIPDTYTANTSA [YAR002W/NUP60]
Response line: 2.43

Prompt line: State its protein stability index for this sequence: NSLIEEINERSETQTKD [YCG1]
Response line: 3.07

Prompt line: State its protein stability index for this sequence: KVKLFHGILDDLETSLS [MED2]
Response line: 3.17

Prompt line: State its protein stability index for this sequence: IYRYKYKVMHQIRACKD [PRP8]
Response line: 2.56

###

# reported protein stability index; entries follow
Test: protein stability index of a GFP-peptide fusion (yeast GPS) (PSI 1-4); higher = more stable; sorted into four equal gates, so the index is relative within each strain
Settings: pdr5∆
Number only, please.

Consider the following illustrative entries.
DKYKLYPVRIPRLDTSK [YJR042W/NUP85]
2.9
SDNNSRIMSRNFYLKRF [SWI1]
2.67
PHIIAVACLFITISIHG [SSN8]
1.3
LSQPVSASKHEYSDNFP [SIR4]
2.34
FMHDPSVFYNIANMVLP [SIR2]
2.03

Prompt line: State its protein stability index for this sequence: FNTNFDDEFGDLDAVFF [SNF6]
Response line: 2.96

Prompt line: State its protein stability index for this sequence: DGSKMLKRADYTAVDTA [RPN14]
Response line: 3.32

Prompt line: State its protein stability index for this sequence: KEIRAFDKLLNIPRREL [SRB4]
Response line: 2.46

Prompt line: State its protein stability index for this sequence: SDFTFPEYYSTARVMGG [DIS3]
Response line: 1.39

Prompt line: State its protein stability index for this sequence: QTPAEKHAFMGTLKKDL [RPL3]
Response line: 3.21

Prompt line: State its protein stability index for this sequence: DEDWSVRIDKALELDDT [ECM29]
Response line: 3.38

Prompt line: State its protein stability index for this sequence: LDPLTKDPVDFVRQAAM [RPN2]
Response line: 3.53

Prompt line: State its protein stability index for this sequence: HPPFIKYACLAIRKNGQ [SIN4]
Response line: 1.51

Prompt line: State its protein stability index for this sequence: VNDNPDIEAGDDDDNNE [DIS3]
Response line: 3.47

Prompt line: State its protein stability index for this sequence: ALPDVVVKGLPDISRAV [RPO31]
Response line: 2.74

Prompt line: State its protein stability index for this sequence: KGKDFEITAKEVYDFTH [FAS1]
Response line: 3.23

Prompt line: State its protein stability index for this sequence: QIQKNVDLLQFPWLNAI [POP3]
Response line: 2.09

Prompt line: State its protein stability index for this sequence: TSLSSKDLSNYRKTEGI [YMR153W/NUP53]
Response line: 3.25

Prompt line: State its protein stability index for this sequence: NVDKNLNEIKEHKIVVL [RPN14]
Response line: 2.38

###

# reported protein stability index; entries follow
Assay: protein stability index of a GFP-peptide fusion (yeast GPS) (PSI 1-4); higher = more stable; sorted into four equal gates, so the index is relative within each strain
Settings: pdr5∆
Number only, please.

SNIPNLLRNLESKMRQQ [YDL088C/ASM4]
2.84
NWRKQKGIDSVVRRRFR [RPL32]
2.66
KLDKQINMADRSLGLQQ [POP6]
3.46
SPIFEVLSDDAKKLSSF [ARP9]
3.19

Prompt line: State its protein stability index for this sequence: KYKSGGKFSFSPLQKEE [SSN2]
Response line: 1.43

Prompt line: State its protein stability index for this sequence: RGFIKSEGSGSSLVQKG [RPC53]
Response line: 3.34

Prompt line: State its protein stability index for this sequence: KGVGRRYSNLVCKKADV [RPS18A]
Response line: 2.37

###

Test: protein stability index of a GFP-peptide fusion (yeast GPS) (PSI 1-4); higher = more stable; sorted into four equal gates, so the index is relative within each strain
Conditions: pdr5∆
# reported protein stability index; entries follow
Number only, please.

LRQQYEIELKKLPKVYK [SWI1]
1.75
NSYQPSPFFVLDEVDAA [SMC1]
2.57
NTNNINNSSSGMNNASA [YGL172W/NUP49]
3.17
EKKPAAKKTSTSVDGKK [HTB2]
2.94
SLDEILLPANLLSLNSV [SRP68]
3.15

Prompt line: State its protein stability index for this sequence: QIAAQSPVELSRMFEEV [SMC1]
Response line: 3.2

Prompt line: State its protein stability index for this sequence: EMGKLRERDITSLFHKF [RRI2]
Response line: 1.83

Prompt line: State its protein stability index for this sequence: LTGEWSTKFDYPPMPFD [FAS1]
Response line: 2.96

Prompt line: State its protein stability index for this sequence: LVTIEGALIHKAGLMTG [SMC1]
Response line: 2.71

Prompt line: State its protein stability index for this sequence: QPQQSTIGGGLFGNKPT [YGR119C/NUP57]
Response line: 2.73

###

# reported protein stability index; entries follow
Experiment: protein stability index of a GFP-peptide fusion (yeast GPS) (PSI 1-4); higher = more stable; sorted into four equal gates, so the index is relative within each strain
Conditions: pdr5∆
Number only, please.

SQLPITPMTRISELPPQ [YGL172W/NUP49]
2.67
NNEKVVQYLRSVQDLGG [YML031W/NDC1]
3.04
LSSMRFKPSQEPEFHAL [RRI1]
2.75

Prompt line: State its protein stability index for this sequence: ETFSTSAHQSPIMQTQM [SNF2]
Response line: 2.8

Prompt line: State its protein stability index for this sequence: IRGSDQAIPKFQMNCYA [RPN2]
Response line: 1.62

Prompt line: State its protein stability index for this sequence: LCRNPLTSGLLYSYLIK [YJL039C/NUP192]
Response line: 1.84

Prompt line: State its protein stability index for this sequence: NDINISSIENNINNNIN [MED2]
Response line: 3

The origin of these recorded values is the supplement of paper PMC9732359.
